test.target: human cannabinoid type 1 receptor (Homo sapiens)
Sequence (P21554 whole entry): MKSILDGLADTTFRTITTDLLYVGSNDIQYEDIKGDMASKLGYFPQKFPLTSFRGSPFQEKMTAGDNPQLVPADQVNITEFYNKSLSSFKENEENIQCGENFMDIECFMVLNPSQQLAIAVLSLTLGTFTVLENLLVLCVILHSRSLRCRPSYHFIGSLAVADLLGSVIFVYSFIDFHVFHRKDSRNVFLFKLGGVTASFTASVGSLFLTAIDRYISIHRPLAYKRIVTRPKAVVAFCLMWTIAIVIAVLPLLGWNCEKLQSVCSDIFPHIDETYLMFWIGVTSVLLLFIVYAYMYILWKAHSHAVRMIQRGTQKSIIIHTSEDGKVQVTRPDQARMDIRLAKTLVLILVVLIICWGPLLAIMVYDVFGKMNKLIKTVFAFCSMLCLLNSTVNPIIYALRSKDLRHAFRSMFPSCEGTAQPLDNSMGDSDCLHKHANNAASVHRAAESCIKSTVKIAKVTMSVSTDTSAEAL
experiment.summary: CB1 receptor competitive binding assay with [3H]CP-55,940
readout: Ki

| compound | test.target | result.value |
| --- | --- | --- |
| CCCCCn1cc(-c2cn(C34CC5CC(CC(C5)C3)C4)nn2)c(=O)c2cc(-c3ccco3)ccc21 | human cannabinoid type 1 receptor (Homo sapiens) | > 10 µM |
| CCCCCn1cc(-c2cn(C34CC5CC(CC(C5)C3)C4)nn2)c(=O)c2cc(-c3ccc(OC(C)C)cc3)ccc21 | human cannabinoid type 1 receptor (Homo sapiens) | > 10 µM |
| CCCCCn1cc(-c2cn(C34CC5CC(CC(C5)C3)C4)nn2)c(=O)c2cc(Br)ccc21 | human cannabinoid type 1 receptor (Homo sapiens) | > 10 µM |
